This section presents compounds with their documented percentage of responding NPPFV cells values.
- Tested on: NPPFV cells
- experimental protocol: Ca2+ imaging (Fura-2) of NPPFV cells after stimulation with neurotransmitters
- Format: cell-based, human
- stated conditions: undifferentiated NPPFV cells; neurotransmitter 0.1 mM; mean±SEM
Report only the number, with the unit % understood.

>>> df
                                   compound  experimental_value
0  N[C@@H](CCC(=O)O)C(=O)O [Glu, glutamate]               48.98
1                                  NCC(=O)O               16.67
2                      CC(=O)OCC[N+](C)(C)C               10.96
3                         NCCc1ccc(O)c(O)c1                6.41

So, `NCCCC(=O)O` ? Its percentage of responding NPPFV cells was 14.94
